For each of the compounds below, state its inhibition at 2.5 µM.
Molecular target: CYP17 (steroid 17-alpha-hydroxylase/17,20 lyase) (Homo sapiens, UniProt P05093)
Sequence (P05093 whole entry): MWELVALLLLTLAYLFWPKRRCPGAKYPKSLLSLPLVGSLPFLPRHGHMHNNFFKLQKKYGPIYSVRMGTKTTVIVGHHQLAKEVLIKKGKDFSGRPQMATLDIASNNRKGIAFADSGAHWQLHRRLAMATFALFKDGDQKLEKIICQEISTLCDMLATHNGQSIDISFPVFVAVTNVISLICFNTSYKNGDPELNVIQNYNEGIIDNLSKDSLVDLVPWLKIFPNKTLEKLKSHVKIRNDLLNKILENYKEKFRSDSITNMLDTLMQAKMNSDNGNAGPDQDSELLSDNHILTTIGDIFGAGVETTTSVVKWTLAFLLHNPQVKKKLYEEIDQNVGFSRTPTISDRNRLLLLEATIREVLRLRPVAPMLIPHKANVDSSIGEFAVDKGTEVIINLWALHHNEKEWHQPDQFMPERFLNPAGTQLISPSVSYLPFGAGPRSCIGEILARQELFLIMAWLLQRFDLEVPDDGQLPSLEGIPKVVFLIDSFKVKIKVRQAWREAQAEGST
Experiment: in vitro
Description: Inhibition of human CYP17 expressed in Escherichia coli at 2.5 uM
Dear colleague, please return just the value in %, with no unit written.

Reported inhibition at 2.5 µM, compound O=c1c([C@H](c2ccc(Br)cc2)n2ccnc2)coc2ccccc12 : ____ 13

Reported inhibition at 2.5 µM, compound O=c1c([C@@H](c2ccc(Br)cc2)n2ccnc2)coc2ccccc12 : ____ 17

Reported inhibition at 2.5 µM, compound N#Cc1ccc([C@@H](c2coc3ccccc3c2=O)n2ccnc2)cc1 : ____ 6

Reported inhibition at 2.5 µM, compound N#Cc1ccc([C@H](c2coc3ccccc3c2=O)n2ccnc2)cc1 : ____ 6

Reported inhibition at 2.5 µM, compound O=c1c([C@H](c2ccc([N+](=O)[O-])cc2)n2ccnc2)coc2ccccc12 : ____ 12

Reported inhibition at 2.5 µM, compound O=c1c([C@@H](c2ccc([N+](=O)[O-])cc2)n2ccnc2)coc2ccccc12 : ____ 20
